Each recorded value in this set is attributed to PubChem BioAssay (NCI).

Below: a set of entries, each annotated with reported TGI.
test system: ACHN renal; assay: NCI tumour cell line growth inhibition, 48 h

compound	TGI
CCCN(CCC)C(=O)C(=O)c1c(N)[nH]n(-c2ccccc2)c1=O	> 100 µM
Nc1nc(-c2ccco2)cc(-c2ccc(CO)o2)n1	> 100 µM
CN(Cc1cnc2c(N)nc(N)nc2n1)c1ccc(Cl)cc1	> 100 µM
O=[N+]([O-])c1ccc(N=Nc2ccc(O)c3ccccc23)cc1	> 100 µM
CCc1ccc2c(c1)C(=O)c1c-2n(CCCN=[N+]=[N-])c(=O)c2cc(OC)c(OC)cc12	> 100 µM
COc1ccccc1C1c2cc3c(cc2OC(N2CCOCC2)C1C)OCO3 (configuration not stated)	> 100 µM
O=C(OCCNC(=O)N1CC1)OCCNC(=O)N1CC1	> 10 µM
Cc1cnc2[nH]c(-c3ccc4ccccc4c3)cc(=O)c2c1	> 100 µM
O=c1cc(-c2ccccc2)[nH]c2nccn12	> 10 µM
COC(=O)C(CC1=C(O)Nc2ccccc2N1)/C(=N/NC(N)=O)C(=O)Nc1ccccc1C (configuration not stated)	> 100 µM
CCCCCCCCCCCCCCCCCCOCC(O)COP(=O)(O)OCC1OC(n2ccc(N)nc2=O)C(O)C1O (configuration not stated)	> 100 µM
CCO/C=N/C1=C(C#N)SC2=N/C(=C\c3ccccc3)C(=O)N21	> 100 µM
